- target or system: Human Factor P (human, UniProt P27918 29-469)
- Sequence (P27918 29-469 limits assumed): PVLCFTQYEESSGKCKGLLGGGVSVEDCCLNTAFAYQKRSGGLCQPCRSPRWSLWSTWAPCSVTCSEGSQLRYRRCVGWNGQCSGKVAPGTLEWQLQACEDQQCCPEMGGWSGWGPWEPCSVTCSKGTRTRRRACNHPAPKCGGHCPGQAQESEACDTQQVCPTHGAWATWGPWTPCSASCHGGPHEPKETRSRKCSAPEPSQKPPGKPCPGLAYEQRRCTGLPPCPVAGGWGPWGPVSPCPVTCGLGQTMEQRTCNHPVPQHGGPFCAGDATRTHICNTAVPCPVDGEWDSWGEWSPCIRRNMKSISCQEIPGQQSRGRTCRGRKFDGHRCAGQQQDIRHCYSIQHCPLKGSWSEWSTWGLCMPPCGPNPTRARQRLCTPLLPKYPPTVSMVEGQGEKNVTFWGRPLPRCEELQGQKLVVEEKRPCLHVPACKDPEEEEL
- assay name: cell-based or functional assay
Below, each of the binders is paired with its reported Zymosan-C3b IC50 (nM), 10% serum value.
Enter your answer as a number in nM; do not include the unit.

binder	Zymosan-C3b IC50 (nM), 10% serum
NVS962-S31A (Fab, V domains shown, NVS962 with heavy chain serine 31 replaced with alanine) VH: EVQLVQSGAEVKKPGSSVKVSCKASGGTFNAYAISWVRQAPGQGLEWMGRIIPIFGTANYAQKFQGRVTITADESTSTAYMELSSLRSEDTAVYYCARHGGYSFDSWGQGTLVTVSS VL: SYELTQPPSVSVAPGQTARISCSGDNLGSKYVDWYQQKPGQAPVLVIYSDNNRPSGIPERFSGSNSGNTATLTISGTQAEDEADYYCQTYTSGNNYLVFGGGTKLTVLG	1.15

// switching to the query binder
Record NVS963 (Fab, V domains shown, Disulfide-bridged Fab; also called Fab NVS963) VH: EVQLVQSGAEVKKPGSSVKVSCKASGGTFSSYAISWVRQAPGQGLEWMGPINPYYGDAIYAQKFQGRVTITADESTSTAYMELSSLRSEDTAVYYCARYYSDYMDYWGQGTLVTVSS VL: QSVLTQPPSVSGAPGQRVTISCTGSSSNIGAGYDVHWYQQLPGTAPKLLIHDNSHRPSGVPDRFSGSKSGTSASLAITGLQSEDEADYYCASYDESAHSVFGGGTKLTVLG . Reported Zymosan-C3b IC50 (nM), 10% serum: 2.34
